meta.source: patent US12173018B2

Attribute: MIC
# Test system: E. coli AG100A
# Procedure text: microbe, parasite or virus in culture
# Assay type: cell-based
# Condition parameters: Escherichia coli, read-out: MIC E. coli AG100A

Recorded results for 6 molecules are shown here.
| Molecule | MIC |
| --- | --- |
| CCN1CCN(C(=O)NC(C(=O)N[C@H]2Cc3cccc(C(=O)O)c3OB2O)c2cnc(N)s2)C(=O)C1=O (stereo partly shown) [Example 51] | 8 to 16 µg/mL |
| O=C(O)c1cccc2c1OB(O)[C@@H](NC(=O)C(NC(=O)N1CCN(CCF)C(=O)C1=O)c1ccc(O)c(O)c1Cl)C2 (stereo partly shown) [Example 71] | 2 to 4 µg/mL |
| CCN1CCN(C(=O)NC(C(=O)N[C@H]2Cc3cccc(C(=O)[O-])c3OB2O)c2ccc[n+](CC(N)=O)c2)C(=O)C1=O (stereo partly shown) [Example 107] | 8 to 16 µg/mL |
| CCN1CCN(C(=O)NC(C(=O)N[C@H]2Cc3ccc(F)c(C(=O)O)c3OB2O)c2ccc(O)c(O)c2F)C(=O)C1=O (stereo partly shown) [Example 149] | 0.5 to 1 µg/mL |
| CCN1CCN(C(=O)N[C@@H](C(=O)N[C@H]2Cc3cccc(C(=O)O)c3OB2O)c2ccc(O)c(F)c2)C(=O)C1=O [Example 156] | 2 to 4 µg/mL |
| CCN1CCN(C(=O)NC(C(=O)N[C@H]2Cc3cccc(C(=O)O)c3OB2O)c2ccc(OC)c(S(N)(=O)=O)c2)C(=O)C1=O (stereo partly shown) [Example 144] | 8 to 16 µg/mL |

## Task Quick check: MIC of CCOC(=O)c1cccc2c1OB(O)[C@@H](NC(=O)C(NC(=O)N1CCN(CC)C(=O)C1=O)c1ncc(O)cc1F)C2 (stereo partly shown) [Example 195] ?
## Result > 128 µg/mL

## Task State the recorded MIC for this entry: CS(=O)(=O)NCCN1CCN(C(=O)NC(C(=O)N[C@H]2Cc3cccc(C(=O)O)c3OB2O)c2ccc(O)c(O)c2Cl)C(=O)C1=O (stereo partly shown) [Example 229]
## Result 0.5 to 1 µg/mL

## Task Requested read-out: MIC. Entry: Nc1ncc(C(NC(=O)N2CCN(CCF)C(=O)C2=O)C(=O)N[C@H]2Cc3cccc(C(=O)O)c3OB2O)s1 (stereo partly shown) [Example 100]
## Result 2 to 4 µg/mL

## Task Endpoint output: MIC of CCN1CCN(C(=O)N[C@H](C(=O)N[C@H]2Cc3cccc(C(=O)O)c3OB2O)c2ncc(O)cc2F)C(=O)C1=O [Example 176] . Value?
## Result 2 to 4 µg/mL

## Task What value of MIC has been reported for the following molecule? CCN1C[C@@H](C)N(C(=O)NC(C(=O)N[C@H]2Cc3cccc(C(=O)O)c3OB2O)c2ncc(O)cc2F)C(=O)C1=O (stereo partly shown) [Example 191]
## Result 8 to 16 µg/mL

## Task Suppose we examine the molecule CCNC(=O)NCCN1CCN(C(=O)NC(C(=O)N[C@H]2Cc3cccc(C(=O)O)c3OB2O)c2ccc(O)c(O)c2Cl)C(=O)C1=O (stereo partly shown) [Example 235] ; what MIC value has been reported?
## Result 2 to 4 µg/mL

## Task Name the reported MIC value associated with the molecule CCN1CCN(C(=O)NC(C(=O)N[C@H]2Cc3cccc(C(=O)O)c3OB2O)c2cccc(O)n2)C(=O)C1=O (stereo partly shown) [Example 117]
## Result 2 to 4 µg/mL

* * *

# Test system: N. gonorrhoeae WHO F
# Procedure text: Liquid broth MIC, N. gonorrhoeae WHO F
# Type: cell-based
# Condition parameters: Neisseria gonorrhoeae; N. gonorrhoeae WHO F, liquid broth; read-out: Minimum Inhibitory Concentration, N. gonorrhoeae WHO F
Entries and their measured MIC follow.

## Task What value of measured MIC is listed for NS(=O)(=O)c1ccc(C(NC(=O)N2CCN(CCF)C(=O)C2=O)C(=O)N[C@H]2Cc3ccc(F)c(C(=O)O)c3OB2O)cc1 (stereo partly shown) [Example 182] ?
## Result 1 to 2 µg/mL

## Task Recorded MIC of CCN1CCN(C(=O)NC(C(=O)N[C@H]2Cc3ccc(F)c(C(=O)O)c3OB2O)c2ccc(O)c(O)c2Cl)C(=O)C1=O (stereo partly shown) [Example 124] , please.
## Result < 0.125 µg/mL

## Task For the compound CCN1CCN(C(=O)NC(C(=O)N[C@H]2Cc3cccc(C(=O)O)c3OB2O)c2ccc(O)cc2F)C(=O)C1=O (stereo partly shown) [Example 87] , what MIC is on record?
## Result < 0.125 µg/mL

## Task What value of measured MIC is listed for CC[C@H]1CN(CC)C(=O)C(=O)N1C(=O)NC(C(=O)N[C@H]1Cc2cccc(C(=O)O)c2OB1O)c1ncc(O)cc1F (stereo partly shown) [Example 218] ?
## Result 0.25 to 0.5 µg/mL

## Task # lookup: MIC of O=C(O)c1c(F)ccc2c1OB(O)[C@@H](NC(=O)C(NC(=O)N1CCN(CCF)C(=O)C1=O)c1ncc(O)cc1F)C2 (stereo partly shown) [Example 183]
## Result < 0.125 µg/mL

## Task Reported MIC, compound CCNC(=O)NCCN1CCN(C(=O)NC(C(=O)N[C@H]2Cc3cccc(C(=O)O)c3OB2O)c2ccc(O)c(O)c2Cl)C(=O)C1=O (stereo partly shown) [Example 235] : ____
## Result 1 to 2 µg/mL

## Task Quick check: MIC of NS(=O)(=O)c1ccc([C@@H](NC(=O)N2CCN(CCF)C(=O)C2=O)C(=O)N[C@H]2Cc3cccc(C(=O)O)c3OB2O)cc1O [Example 170] ?
## Result < 0.125 µg/mL

## Task Suppose we examine the compound CCN1CCN(C(=O)NC(C(=O)N[C@H]2Cc3cccc(C(=O)O)c3OB2O)c2ncc(O)cc2Cl)C(=O)C1=O (stereo partly shown) [Example 150] ; what MIC value has been reported?
## Result 0.25 to 0.5 µg/mL

## Task Query (compound): CCN1CCN(C(=O)NC(C(=O)N[C@H]2Cc3ccc(F)c(C(=O)O)c3OB2O)c2ncc(O)cc2Cl)C(=O)C1=O (stereo partly shown) [Example 151] ; field requested: MIC
## Result < 0.125 µg/mL

## Task Which measured MIC value corresponds to CCN1C[C@H](C)N(C(=O)NC(C(=O)N[C@H]2Cc3ccc(F)c(C(=O)O)c3OB2O)c2ncc(O)cc2F)C(=O)C1=O (stereo partly shown) [Example 208] ?
## Result < 0.125 µg/mL

## Task Look at this compound and give its reported MIC. CCN1CCN(C(=O)N[C@@H](C(=O)N[C@H]2Cc3ccc(F)c(C(=O)O)c3OB2O)c2ccc(O)c(F)c2)C(=O)C1=O [Example 161]
## Result < 0.125 µg/mL

## Task GET /values?readout=MIC&item= CCN1CCN(C(=O)N[C@@H](C(=O)N[C@H]2Cc3cccc(C(=O)O)c3OB2O)c2ccc(O)c(O)c2)C(=O)C1=O [Example 39]
## Result 0.25 to 0.5 µg/mL

## Task I'd like to know its MIC. The compound in question is CCN1CCN(C(=O)NC(C(=O)N[C@H]2Cc3cccc(C(=O)O)c3OB2O)c2ccsc2)C(=O)C1=O (stereo partly shown) [Example 137]
## Result < 0.125 µg/mL

* * *

# System: E. coli AG100
# Procedure text: Broth microdilution MIC, E. coli AG100 (wild-type parent)
# Type: cell-based
# Condition parameters: Escherichia coli; wild-type parent E. coli AG100, broth microdilution; read-out: MIC E. coli AG100
Let's look at some compounds and their measured MIC.

Solved cases below.
| Compound | MIC |
| --- | --- |
| CCN1CCN(C(=O)NC(C(=O)N[C@H]2Cc3cccc(C(=O)O)c3OB2O)c2cccnc2)C(=O)C1=O (stereo partly drawn) | 32 to 64 µg/mL |
| CCN1CCN(C(=O)NC(C(=O)N[C@H]2Cc3ccc(F)c(C(=O)O)c3OB2O)c2ccc(S(N)(=O)=O)cc2)C(=O)C1=O (stereo partly drawn) | > 128 µg/mL |
| CCN1CCN(C(=O)N[C@@H](C(=O)N[C@H]2Cc3cccc(C(=O)O)c3OB2O)c2ccc(S(N)(=O)=O)c(O)c2)C(=O)C1=O | 32 to 64 µg/mL |
| NCCN1CCN(C(=O)N[C@@H](C(=O)N[C@H]2Cc3cccc(C(=O)O)c3OB2O)c2ccc(O)c(O)c2Cl)C(=O)C1=O | 0.5 to 1 µg/mL |
| CCN1CCN(C(=O)NC(C(=O)N[C@H]2Cc3cccc(C(=O)O)c3OB2O)c2ccc(NS(C)(=O)=O)cn2)C(=O)C1=O (stereo partly drawn) | > 128 µg/mL |

## Task Data request, read-out MIC, for `CCN1CCN(C(=O)N[C@@H](C(=O)N[C@H]2Cc3cccc(C(=O)O)c3OB2O)c2ccc(O)c(O)c2Cl)C(=O)C1=O`
## Result 0.5 to 1 µg/mL
